molecular target: pre-microRNA 136; assay: Binding affinity to pre-miR-136 RNA (unknown origin) at 0.063 to 1 uM by SPR assay; format: nucleic-acid assay; settings: read-out: Kd
measurement name: pKd
# reply with the number alone; pKd is -log10 of concentration in mol/L

Note pKd for the compound shown: NCCCNc1ccc2c(n1)nc(NCCCN)c1ccccc12
6.33

----------
experiment: Binding affinity to pre-miR-136 RNA hairpin mutant (unknown origin) at 0.063 to 1 uM by SPR assay; settings: read-out: Kd
measurement name: pKd
# reply with the number alone; pKd is -log10 of concentration in mol/L

Note pKd for the molecule shown: NCCCNc1ccc2c(n1)nc(NCCCN)c1ccccc12
1.19

----------
experiment: Binding affinity to pre-miR-136 RNA delta-C-bulge mutant (unknown origin) at 0.063 to 1 uM by SPR assay; conditions: read-out: Kd
measurement name: Kd (mM)
Answer with a number only, understood to be in mM.

Note Kd for the compound shown: NCCCNc1ccc2c(n1)nc(NCCCN)c1ccccc12
3.2

// data source = ChEMBL document CHEMBL4392847
